PROCEDURE SUMMARY: The drug is tested on the gut metagenome community of MV01 with ENA study accession number: PRJEB31790 and ENA sample accession number: SAMEA5537482 for biotransformation. The drug concentrations were measured over 9 timepoints collected between 0 and 24 hours of incubation by liquid-chromatography-coupled mass spectrometry (LC–MS)
Format: ADME
Parameters: dose 2 uM, timepoint 0, 1, 2, 4, 6, 8, 12, 18, 24 hours
CONDITIONS: 2 µM
VALUE KIND: Bacterial Biotransformation

molecule="C#C[C@]1(OC(C)=O)CC[C@H]2[C@@H]3CCC4=CC(=O)CC[C@@H]4[C@H]3CC[C@@]21C [NORETHINDRONE ACETATE]" experimental_value="Compound metabolized"
molecule=CC(=O)OCC(CCn1cnc2cnc(N)nc21)COC(C)=O experimental_value="Compound metabolized"
molecule=COc1ccc([C@@H]2Sc3ccccc3N(CCN(C)C)C(=O)[C@@H]2OC(C)=O)cc1 experimental_value="Compound NOT metabolized"
molecule=C[C@@H]1C[C@H]2[C@@H]3CCC4=CC(=O)C=C[C@]4(C)[C@@]3(F)[C@@H](O)C[C@]2(C)[C@@]1(O)C(=O)CO experimental_value="Compound NOT metabolized"

---

CONDITIONS: parabacteroides johnsonii, 12 h, 2 µM
Description: The drug is tested on Parabacteroides johnsonii strain: DSM18315 for biotransformation. The drug concentrations were measured before and after a 12-h incubation by liquid-chromatography-coupled mass spectrometry (LC–MS)
VALUE KIND: Bacterial Biotransformation

compound=COc1ccc(/C=C/C(=O)Nc2ccccc2C(=O)O)cc1OC experimental_value="Compound NOT metabolized"
compound="COc1cc2nc(N3CCN(C(=O)C4CCCO4)CC3)nc(N)c2cc1OC (stereo not given)" experimental_value="Compound NOT metabolized"
compound="Cc1ccccc1N1C(=O)c2cc(S(N)(=O)=O)c(Cl)cc2NC1C (stereo not given)" experimental_value="Compound NOT metabolized"
compound=Clc1ccc(Cn2c(CN3CCCC3)nc3ccccc32)cc1 experimental_value="Compound NOT metabolized"
compound=CC[C@H](C)C(=O)O[C@H]1CCC=C2C=C[C@H](C)[C@H](CC[C@@H]3C[C@@H](O)CC(=O)O3)[C@H]21 experimental_value="Compound metabolized"
compound="CCN(CC)CCNC(=O)c1ccc(NC(C)=O)cc1 [ACECAINIDE]" experimental_value="Compound NOT metabolized"
compound=CC#CCn1c(N2CCC[C@@H](N)C2)nc2c1c(=O)n(Cc1nc(C)c3ccccc3n1)c(=O)n2C experimental_value="Compound metabolized"
compound="CC(=O)Nc1ccc(OC(C)=O)cc1 [DIACETAMATE]" experimental_value="Compound metabolized"
compound="CCN1CCCC1CNC(=O)c1cc(S(=O)(=O)CC)c(N)cc1OC (stereo not given) [AMISULPRIDE]" experimental_value="Compound NOT metabolized"
compound=CCOc1ccc(NC(C)=O)cc1 experimental_value="Compound NOT metabolized"
compound=CC(=O)OCC(=O)[C@@]12N=C(C)O[C@@H]1C[C@H]1[C@@H]3CCC4=CC(=O)C=C[C@]4(C)[C@H]3[C@@H](O)C[C@@]12C experimental_value="Compound metabolized"
compound="CC(O)(CS(=O)(=O)c1ccc(F)cc1)C(=O)Nc1ccc(C#N)c(C(F)(F)F)c1 (stereo not given) [BICALUTAMIDE]" experimental_value="Compound NOT metabolized"
compound="COc1ccccc1OCC(O)CN1CCN(CC(=O)Nc2c(C)cccc2C)CC1 (stereo not given)" experimental_value="Compound NOT metabolized"
compound="COc1ccnc(C[S+]([O-])c2nc3ccc(OC(F)F)cc3[nH]2)c1OC (stereo not given)" experimental_value="Compound metabolized"
compound=CCCc1nc(C(C)(C)O)c(C(=O)OCc2oc(=O)oc2C)n1Cc1ccc(-c2ccccc2-c2nnn[nH]2)cc1 experimental_value="Compound metabolized"
compound="CN(CCOc1ccc(CC2SC(=O)NC2=O)cc1)c1ccccn1.O=C(O)/C=C\\C(=O)O (stereo not given) [ROSIGLITAZONE MALEATE]" experimental_value="Compound NOT metabolized"
compound="CC(CN1c2ccccc2Sc2ccccc21)N(C)C (stereo not given)" experimental_value="Compound NOT metabolized"
compound=O=C([O-])C[C@H](O)C[C@H](O)/C=C/c1c(C2CC2)nc2ccccc2c1-c1ccc(F)cc1.O=C([O-])C[C@H](O)C[C@H](O)/C=C/c1c(C2CC2)nc2ccccc2c1-c1ccc(F)cc1.[Ca+2] experimental_value="Compound NOT metabolized"
compound=COc1ccc2c(c1)c(CC(=O)O)c(C)n2C(=O)c1ccc(Cl)cc1 experimental_value="Compound metabolized"
compound="Cc1nc2n(c(=O)c1CCN1CCC(c3noc4cc(F)ccc34)CC1)CCCC2O (stereo not given)" experimental_value="Compound metabolized"
compound="CN1CCOC(c2ccccc2)c2ccccc2C1 (stereo not given)" experimental_value="Compound NOT metabolized"
compound="COc1cc2nc(N3CCN(C(=O)C4COc5ccccc5O4)CC3)nc(N)c2cc1OC.CS(=O)(=O)O (stereo not given) [DOXAZOSIN MESYLATE]" experimental_value="Compound NOT metabolized"
compound=COc1cc2c(c(OC)c1OC)-c1ccc(OC)c(=O)cc1[C@@H](NC(C)=O)CC2 experimental_value="Compound metabolized"
compound="CCN(CC)C(=O)C1(c2ccccc2)CC1CN (stereo not given)" experimental_value="Compound NOT metabolized"
compound="COc1ccc2[nH]c([S+]([O-])Cc3ncc(C)c(OC)c3C)nc2c1 (stereo not given)" experimental_value="Compound metabolized"
compound="CCN(CC)C(C)CN1c2ccccc2Sc2ccccc21 (stereo not given)" experimental_value="Compound metabolized"
compound=CCCN(CCC)CCc1cccc2c1CC(=O)N2 experimental_value="Compound NOT metabolized"
compound="CCC(COC(=O)c1cc(OC)c(OC)c(OC)c1)(c1ccccc1)N(C)C.O=C(O)/C=C\\C(=O)O (stereo not given)" experimental_value="Compound metabolized"
compound="CC1Cc2ccccc2N1NC(=O)c1ccc(Cl)c(S(N)(=O)=O)c1 (stereo not given) [INDAPAMIDE]" experimental_value="Compound NOT metabolized"
compound="CSc1ccc2c(c1)C(N1CCN(C)CC1)Cc1ccccc1S2.O=C(O)/C=C\\C(=O)O (stereo not given)" experimental_value="Compound metabolized"
compound=C#C[C@]1(O)CC[C@H]2[C@@H]3CCC4=CC(=O)CC[C@@H]4[C@H]3CC[C@@]21CC experimental_value="Compound metabolized"
compound=CCS(=O)(=O)CCn1c([N+](=O)[O-])cnc1C experimental_value="Compound metabolized"
compound=Nc1ccc(/N=N/c2ccccc2)c(N)n1 experimental_value="Compound metabolized"
compound="CCN(CC)CCOCCOC(=O)C1(c2ccccc2)CCCC1.O=C(O)CC(O)(CC(=O)O)C(=O)O [CARBETAPENTANE CITRATE]" experimental_value="Compound metabolized"
compound="CC(=O)SCC(Cc1ccccc1)C(=O)NCC(=O)OCc1ccccc1 (stereo not given)" experimental_value="Compound metabolized"
